- target-or-test-system: T1, human Y2 receptor (human, UniProt P49146 1-381)
- T1 construct: whole, on cells; used as membrane fraction of CHO/dhfr- cells stably expressing hY2R; also called hY2R; human NPY2R
- T1 sequence (looked up): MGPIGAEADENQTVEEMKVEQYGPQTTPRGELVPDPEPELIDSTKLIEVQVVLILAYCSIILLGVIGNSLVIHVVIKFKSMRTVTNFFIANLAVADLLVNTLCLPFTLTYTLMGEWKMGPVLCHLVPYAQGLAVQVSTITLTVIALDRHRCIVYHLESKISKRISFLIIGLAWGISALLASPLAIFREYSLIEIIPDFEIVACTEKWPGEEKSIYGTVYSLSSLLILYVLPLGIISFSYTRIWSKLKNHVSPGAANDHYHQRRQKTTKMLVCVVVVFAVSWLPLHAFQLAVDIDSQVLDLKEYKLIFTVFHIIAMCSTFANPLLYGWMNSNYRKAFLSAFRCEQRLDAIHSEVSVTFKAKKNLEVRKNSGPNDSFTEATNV
- method-summary: RBA: displacement of [125I]-PYY from hY2R/CHO membranes
- Method: After incubation at room temperature for 60 minutes, the mixture was filtered through the cell harvester FilterMate (PerkinElmer) using UniFilter-96 GF/C treated with polyethylenimine (PEI) solution (20 mM Tris, 0.3% PEI, pH 7.4), and the filter was washed 3 times with a filtering buffer (50 mM Tris, 5 mM MgCl₂, 150 mM NaCl, 0.03% NaN₃, 0.05% CHAPS, pH 7.4). […] The data obtained were analyzed using Prism to calculate the IC₅₀ value.
Non-standard residues stand in square brackets, D forms with d. No end group written: not given here. Phe(3-Me) = Cc1cccc(C[C@H](N)C(=O)O)c1; tBuAla = CC(C)(C)C[C@H](N)C(=O)O; Cha = N[C@@H](CC1CCCCC1)C(=O)O; Aib = CC(C)(N)C(=O)O; Ahx = NCCCCCC(=O)O
property-measured: IC50 Ratio

>  <binder>
Ac-S[dP]RH[Cha][tBuAla]NK[Aib]TRQR[Phe(3-Me)]-NH2 (SMILES CC(=O)N[C@@H](CO)C(=O)N1CCC[C@@H]1C(=O)N[C@@H](CCCNC(=N)N)C(=O)N[C@@H](Cc1c[nH]cn1)C(=O)N[C@@H](CC1CCCCC1)C(=O)N[C@@H](CC(C)(C)C)C(=O)N[C@@H](CC(N)=O)C(=O)N[C@@H](CCCCN)C(=O)NC(C)(C)C(=O)N[C@H](C(=O)N[C@@H](CCCNC(=N)N)C(=O)N[C@@H](CCC(N)=O)C(=O)N[C@@H](CCCNC(=N)N)C(=O)N[C@@H](Cc1cccc(C)c1)C(N)=O)[C@@H](C)O, also called compound No. 258) [Ac-[D-Pro24, Cha27, Leu(Me)28, Lys30, Aib31, Phe(3Me)36]-PYY(23-36)]

>  <IC50 Ratio>
0.61 IC50 compound/IC50 PYY(3-36)

$$$$
>  <binder>
Ac-E[dP]RH[Cha][Cha]NK[Aib]TRQR[Phe(3-Me)]-NH2 (SMILES CC(=O)N[C@@H](CCC(=O)O)C(=O)N1CCC[C@@H]1C(=O)N[C@@H](CCCNC(=N)N)C(=O)N[C@@H](Cc1c[nH]cn1)C(=O)N[C@@H](CC1CCCCC1)C(=O)N[C@@H](CC1CCCCC1)C(=O)N[C@@H](CC(N)=O)C(=O)N[C@@H](CCCCN)C(=O)NC(C)(C)C(=O)N[C@H](C(=O)N[C@@H](CCCNC(=N)N)C(=O)N[C@@H](CCC(N)=O)C(=O)N[C@@H](CCCNC(=N)N)C(=O)N[C@@H](Cc1cccc(C)c1)C(N)=O)[C@@H](C)O, also called compound No. 259) [Ac-[Glu23, D-Pro24, Cha27,28, Lys30, Aib31, Phe(3Me)36]-PYY(23-36)]

>  <IC50 Ratio>
1.1 IC50 compound/IC50 PYY(3-36)

$$$$

Continue with the next binder.
The recorded IC50 Ratio for entry IK[Ahx]RAYINLITRQRY-NH2 (N-terminus assumed; SMILES CC[C@H](C)[C@H](N)C(=O)N[C@@H](CCCCN)C(=O)NCCCCCC(=O)N[C@@H](CCCNC(=N)N)C(=O)N[C@@H](C)C(=O)N[C@@H](Cc1ccc(O)cc1)C(=O)N[C@H](C(=O)N[C@@H](CC(N)=O)C(=O)N[C@@H](CC(C)C)C(=O)N[C@H](C(=O)N[C@H](C(=O)N[C@@H](CCCNC(=N)N)C(=O)N[C@@H](CCC(N)=O)C(=O)N[C@@H](CCCNC(=N)N)C(=O)N[C@@H](Cc1ccc(O)cc1)C(N)=O)[C@@H](C)O)[C@@H](C)CC)[C@@H](C)CC, also called compound No. 353) [[Ile22,28,31, Lys23, Acp24, Ala26]-PYY(22-36)] equals 9.1 IC50 compound/IC50 PYY(3-36)
